# tested.on: T1, recombinant human IGSF8 extracellular domain tagged by a human Fc region (IGSF8-hFc) (human, UniProt Q969P0 28-579, biotin label in Examples 17, 18 and 28 (site not given))
# T1 construct: also called IGSF8-Fc fusion protein; IGSF8-hFc-biotin; not shown: human Fc region
# T1 sequence: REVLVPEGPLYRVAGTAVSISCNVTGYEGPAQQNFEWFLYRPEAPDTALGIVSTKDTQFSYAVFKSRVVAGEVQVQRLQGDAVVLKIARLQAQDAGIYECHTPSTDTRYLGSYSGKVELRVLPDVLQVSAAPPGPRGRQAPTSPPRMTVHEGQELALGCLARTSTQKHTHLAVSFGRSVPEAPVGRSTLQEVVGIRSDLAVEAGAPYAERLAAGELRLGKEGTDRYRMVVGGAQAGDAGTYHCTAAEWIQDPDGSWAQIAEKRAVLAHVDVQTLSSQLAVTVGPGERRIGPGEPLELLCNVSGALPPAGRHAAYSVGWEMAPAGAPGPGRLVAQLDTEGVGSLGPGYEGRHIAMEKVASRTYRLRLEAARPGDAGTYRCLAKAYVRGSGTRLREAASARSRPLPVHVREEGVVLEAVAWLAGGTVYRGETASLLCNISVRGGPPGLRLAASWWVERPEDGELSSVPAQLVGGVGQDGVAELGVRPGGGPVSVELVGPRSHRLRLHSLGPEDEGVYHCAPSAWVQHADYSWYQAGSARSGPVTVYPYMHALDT
# experimental.details: SPR, Ab captured
# Procedure: The binding affinities of the L1 and L2 antibodies to IGSF8 recombinant protein were determined by surface plasmon resonance (SPR). Briefly, anti-human Fab antibody was imobilized on acarboxyl-derivatized SPR chip surface, and the antibodies were captured on the resulting surface at 5 μg/ml for 30 seconds.
value.type: pKd
A value of pKd is the negative decimal logarithm of a concentration given in moles per litre.

L1VL-Q24H (antibody, V domains shown) VH: QVQLVESGGGVVQPGRSLRLSCAASGFTFSTYGMHWVRQAPGKGLEWVAVIWDDGSYKYYGDSVKGRFTISRDNSKNTLYLQMNSLRAEDTAVYYCARDGSGWGYAFDIWGQGTMVTVSS VL: DIQLTQSPSSLSASVGDRVTITCHASQDISEYLNWYQHKPGKAPNPLVFDAANLETGVPPRFSATGSGTDFSLTITSLQPEDFATYYCQQYDSFPYTFGQGTRLDIK :: 6.84
L1-33 (antibody, V domains shown) VH: QVQLVESGGGVVQPGRSLRLSCAASGFTFSTYGMHWVRQAPGKGLEWVAVIWDGGKYKYYGDSVKGRFTISRDNSKNTLYLQMNSLRAEDTAVYYCARDGSGWGYAFDIWGQGTLVTVSS VL: DIQLTQSPSSLSASVGDRVTITCQASQDIGPWLNWYQHKPGKAPKPLVFGSPNLETGVPSRFSASGSGTDFTLTISSLQPEDFATYYCQQYDSFPYTFGQGTKVEIK :: 10.54

// switching to the query binder
## Input Let me know recorded pKd for L1-24 (antibody, V domains shown) VH: QVQLVESGGGVVQPGRSLRLSCAASGFTFSTYGMHWVRQAPGKGLEWVAVIWDDGSYKYYGDSVKGRFTISRDNSKNTLYLQMNSLRAEDTAVYYCARDGSGWGYAFDIWGQGTLVTVSS VL: DIQLTQSPSSLSASVGDRVTITCQASQDIGPYLNWYQHKPGKAPKPLVFGSPNLETGVPSRFSASGSGTDFTLTISSLQPEDFATYYCQQYDSFPYTFGQGTKVEIK , thanks.
## Output 11.17
